- systemUnderTest: UniProt:P32245
- Sequence (P32245 whole entry): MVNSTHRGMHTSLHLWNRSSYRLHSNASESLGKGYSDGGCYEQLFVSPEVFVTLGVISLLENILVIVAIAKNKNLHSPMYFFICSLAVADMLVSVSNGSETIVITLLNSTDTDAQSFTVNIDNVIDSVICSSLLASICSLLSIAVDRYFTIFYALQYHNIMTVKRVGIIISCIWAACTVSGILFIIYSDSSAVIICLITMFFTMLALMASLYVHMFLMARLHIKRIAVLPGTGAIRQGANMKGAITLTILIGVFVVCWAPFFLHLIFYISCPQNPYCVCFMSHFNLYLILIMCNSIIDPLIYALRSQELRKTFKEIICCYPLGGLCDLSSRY
- testDescription: Activity against human MC4R by cAMP accumulation
pEC50: −log10 of the molar value.
propertyName: pEC50

>>> number("CCOC(=O)N(CC1(C2CCCCC2)CCN(C(=O)[C@@H](Cc2ccc(Cl)cc2)NC(=O)[C@H]2Cc3ccccc3CN2)CC1)C(C)C")
7.85
>>> number("O=C(N[C@H](Cc1ccc(Cl)cc1)C(=O)N1CCC(CN2C(=O)OCC23CCC3)(C2CCCCC2)CC1)[C@H]1Cc2ccccc2CN1")
7.82
>>> number("C[C@H]1COC(=O)N1CC1(C2CCCCC2)CCN(C(=O)[C@@H](Cc2ccc(Cl)cc2)NC(=O)[C@H]2Cc3ccccc3CN2)CC1")
8.07
>>> number("CN1CCN(CC2(C3CCCCC3)CCN(C(=O)[C@@H](Cc3ccc(Cl)cc3)NC(=O)[C@H]3Cc4ccccc4CN3)CC2)C1=O")
7.80
>>> number("O=C(N[C@H](Cc1ccc(Cl)cc1)C(=O)N1CCC(CN2CCNC2=O)(C2CCCCC2)CC1)[C@H]1Cc2ccccc2CN1")
7.80
>>> number("CC1(C)COC(=O)N1CC1(C2CCCCC2)CCN(C(=O)[C@@H](Cc2ccc(Cl)cc2)NC(=O)[C@H]2Cc3ccccc3CN2)CC1")
8.62
>>> number("O=C(N[C@H](Cc1ccc(Cl)cc1)C(=O)N1CCC(CN2CCOC2=O)(C2CCCCC2)CC1)[C@H]1Cc2ccccc2CN1")
8.24
>>> number("CC(C)N(CC1(C2CCCCC2)CCN(C(=O)[C@@H](Cc2ccc(Cl)cc2)NC(=O)[C@H]2Cc3ccccc3CN2)CC1)S(C)(=O)=O")
8.25
>>> number("C[C@@H]1COC(=O)N1CC1(C2CCCCC2)CCN(C(=O)[C@@H](Cc2ccc(Cl)cc2)NC(=O)[C@H]2Cc3ccccc3CN2)CC1")
8.89
>>> number("O=C(N[C@H](Cc1ccc(Cl)cc1)C(=O)N1CCC(CN2C(=O)OCC23CC3)(C2CCCCC2)CC1)[C@H]1Cc2ccccc2CN1")
8.21
>>> number("O=C(N[C@H](Cc1ccc(Cl)cc1)C(=O)N1CCC(CN2CCCS2(=O)=O)(C2CCCCC2)CC1)[C@H]1Cc2ccccc2CN1")
8.28
>>> number("CC1(C)CCN(CC2(C3CCCCC3)CCN(C(=O)[C@@H](Cc3ccc(Cl)cc3)NC(=O)[C@H]3Cc4ccccc4CN3)CC2)S1(=O)=O")
8.24
